Some compounds, each annotated with its measured cytotoxicity at 70.5 h.
# procedure_details: Human HepG2 cell viability assay in 384 well format
# Type: toxicity, cell-based
# Parameters: dose 125 nL, time 70.5 hour; concentration not given beside the values
# condition_details: HepG2 cells, read-out: Inhibition
Give just the numeric value; % need not be written.

- O=C1Nc2ccccc2CC12CCCN2Cc1ccccn1 (centres undefined): 29.1

Q: Using the record for Cc1nc[nH]c1-c1nccn1CCN1CCCC1=O , report its cytotoxicity at 70.5 h.
A: 24.3

Q: Using the record for Cc1nn(C)c2c(N3CCSCC3)nc(C3CC3)nc12 , report its cytotoxicity at 70.5 h.
A: -4.86

Q: Using the record for CC(C)NC(=O)N1CCc2c(CNc3ncccn3)cncc2C1 , report its cytotoxicity at 70.5 h.
A: -3.35

====

# procedure_details: Human HepG2 cell viability assay in 384 well format
# Assay type: toxicity, cell-based
# Set-up: dose 125 nL, time 70.5 hour; concentration not given beside the values
# condition_details: HepG2 cells, read-out: Inhibition
quantity_kind: cytotoxicity at 70.5 h (%)
Give just the numeric value; % need not be written.

// worked examples, cytotoxicity at 70.5 h included
- CSCCC(=O)N1CCCN(c2ccccc2C)CC1: 13.3
- CN1CCOC(C(=O)N2CCC3(CCCC3)CC2)C1 (stereo unspecified): -2.13
- Cc1ccc(CN(C)C(=O)c2cccc(NC(N)=O)c2)o1: -11.5
- CC(C)c1cc(C(=O)N2CCCC(n3cncn3)C2)n[nH]1 (stereo unspecified): 6.33
- O=C(c1ccoc1)N1CCC(Nc2cccnn2)CC1: -8.84

Q: Using the record for COc1ccccc1N(C)Cc1nc2c(cnn2C)c(=O)[nH]1 , report its cytotoxicity at 70.5 h.
A: -4.86

====

# procedure_details: Human HepG2 cell viability assay in 384 well format
# Type: toxicity, cell-based
# Set-up: dose 125 nL, time 70.5 hour; concentration not given beside the values
# condition_details: HepG2 cells, read-out: Inhibition
quantity_kind: cytotoxicity at 70.5 h
Please report the result as a number followed by the unit.

• O[C@H]1[C@H](n2cc(-c3cncnc3)nn2)c2ccccc2C12CCNCC2 = -5.02%
• COCCCN(C)S(=O)(=O)c1ccc(C(F)(F)F)cc1C#N = -10.6%
• CCCc1n[nH]cc1C(=O)N1CCC(c2nccn2CCOC)CC1 = 19%
• Cc1nn(Cn2ccc(C(=O)N3CCCCCC3)n2)c(C)c1Cl = -11.3%
• CN(CCCC1CCCO1)C(=O)c1cccc(C#N)c1 (stereo unspecified) = -5.92%
• Cc1cnn(CC2CCCCN2CCC(=O)Nc2cc(C)on2)c1 (stereo unspecified) = 4.06%
• CNC(=O)CCCNCc1c(C)nn(CC(C)C)c1N(C)C = 0.675%
• OC[C@@H]1[C@H]2CN(c3ccccn3)CCN2C[C@H]1c1ccccc1 = -1.78%

Q: Using the record for COCCNc1ncc(-c2cccc(OC)c2)c(-c2nccn2C)n1 , report its cytotoxicity at 70.5 h.
A: -7.42%

Q: Using the record for COCc1noc(CCNC(=O)c2cc(C)c(C)[nH]c2=O)n1 , report its cytotoxicity at 70.5 h.
A: -7.79%

Q: Using the record for Cc1nc(C)n(C2CCCN(C(=O)Cc3cccnc3)C2)n1 (stereo unspecified) , report its cytotoxicity at 70.5 h.
A: 3.66%

Attribution: ChEMBL document CHEMBL3507680
